assay: amyloid nucleation score (Sup35N fusion, yeast selection) (log enrichment); library NNK3; higher = more nucleation; inactive = no reads after selection;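 further: zero at mode of non-aggregating sequences after 7 days selection at 30°C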

- substance: "LCCKIHSRTKMRRGSC"
  amyloid nucleation score: "inactive"
- substance: "CSAIFCVVRGFRRVK"
  amyloid nucleation score: "inactive"
- substance: "PLCIHLVVMKSKPATNFSGA"
  amyloid nucleation score: "inactive"
- substance: "FSGFTVR"
  amyloid nucleation score: "inactive"
- substance: "SVTFSHVRTSRIRCGIMVYP"
  amyloid nucleation score: "inactive"
- substance: "YNLSNTVLAISVGERNT"
  amyloid nucleation score: "inactive"
- substance: "RLYNKSVTLAWRRFSGTKEL"
  amyloid nucleation score: "inactive"
- substance: "ARSDHYYAVIGDVRMNILPI"
  amyloid nucleation score: "inactive"
- substance: "YLNFIGTLEV"
  amyloid nucleation score: "inactive"
- substance: "NEALSERQYRAMLTETLVAG"
  amyloid nucleation score: "inactive"
- substance: "IYDCNRDIGDVLTSSDPPHA"
  amyloid nucleation score: "inactive"
- substance: "NCNIWIEVQFTASDVIISWV"
  amyloid nucleation score: 1.69
- substance: "RVMSWMILNKYVKIPYCRHR"
  amyloid nucleation score: "inactive"
- substance: "KKMHNVALGFMFIVVG"
  amyloid nucleation score: "inactive"
- substance: "MIRSVLLIQFNALEHSVRCR"
  amyloid nucleation score: "inactive"
- substance: "IKSTTSKVPANMDSWLGTKM"
  amyloid nucleation score: "inactive"
- substance: "THRDYLMVRYCGSCHVEMVS"
  amyloid nucleation score: "inactive"
- substance: "MYWLHYKVHNYNSCVI"
  amyloid nucleation score: "inactive"
- substance: "RALMGLVIKPKMSNTNLLDY"
  amyloid nucleation score: "inactive"
- substance: "LGHYAKPLSSVQQNRTNMGA"
  amyloid nucleation score: "inactive"
- substance: "AGGSLWKAL"
  amyloid nucleation score: "inactive"
- substance: "FFFLWGAP"
  amyloid nucleation score: "inactive"
- substance: "VSYWNEHHSEIVPLGCF"
  amyloid nucleation score: "inactive"
- substance: "VLRKARVVIRSYSMEVRFRS"
  amyloid nucleation score: "inactive"
- substance: "MGVIMEGMRFFFVWMQM"
  amyloid nucleation score: "inactive"
- substance: "AVIIDIHGINPMG"
  amyloid nucleation score: "inactive"
- substance: "YQCSASFYRTNVGPSTGHQL"
  amyloid nucleation score: 1.13
- substance: "CNILIISTTLTPKITLTFYC"
  amyloid nucleation score: 1.64
- substance: "NRVDIRLVKCYWSGDSGGVE"
  amyloid nucleation score: "inactive"
- substance: "ITLLCTLYYGQPTLGVDLVL"
  amyloid nucleation score: "inactive"
- substance: "FYSFWYPFTVSAMRLYWCSW"
  amyloid nucleation score: "inactive"
- substance: "TFLMAYSWSCRQRNCKGFIY"
  amyloid nucleation score: "inactive"
- substance: "SLLRDVKG"
  amyloid nucleation score: -0.487
- substance: "TNNTKERYIHLSFMTKWWTF"
  amyloid nucleation score: "inactive"
- substance: "ILWQYQTCC"
  amyloid nucleation score: -0.457
- substance: "IMMMNLKM"
  amyloid nucleation score: 1.92
- substance: "MKDASFQP"
  amyloid nucleation score: "inactive"
